FYI, the data here is from ChEMBL document CHEMBL3885881.

As shown below, each of these compounds has a reported ALANINE AMINOTRANSFERASE value.
- Species: Rattus norvegicus
- ASSAY DETAILS: DrugMatrix - Regimen: Daily Repeat
- Format: toxicity, organism-based, Sprague-Dawley
- Set-up: regimen Daily Repeat, gender Male, age 6-8 weeks
- PROTOCOL CONDITIONS: in vivo, po, 0 mg/kg, 120 h, tissue Plasma, route oral GAVAGE, dose level Control, time 5 day, […]
VALUE KIND: ALANINE AMINOTRANSFERASE (u/L)

{"columns": ["COMPOUND", "OBSERVED"],
 "data": [
  ["COCc1c(C(C)C)nc(C(C)C)c(/C=C/[C@@H](O)C[C@@H](O)CC(=O)O)c1-c1ccc(F)cc1", 58.83],
  ["CCCC[C@@H](CC)COC(=O)c1ccccc1C(=O)OC[C@@H](CC)CCCC [BIS(2-ETHYLHEXYL)PHTHALATE]", 68.83],
  ["CC(C)(Oc1ccc(CCNC(=O)c2ccc(Cl)cc2)cc1)C(=O)O [BEZAFIBRATE]", 33.2],
  ["CN(C)CCCC1(c2ccc(F)cc2)OCc2cc(C#N)ccc21 (centres undefined)", 57.83],
  ["C=CCN", 41.33],
  ["COC1=CC(=O)C[C@@H](C)[C@]12Oc1c(Cl)c(OC)cc(OC)c1C2=O", 57],
  ["c1ccc2[nH]c(-c3cscn3)nc2c1", 68.83],
  ["CSc1ccc2c(c1)N(CCC1CCCCN1C)c1ccccc1S2 (centres undefined)", 62.5],
  ["CC1=C(/C=C/C(C)=C/C=C/C(C)=C\\C(=O)O)C(C)(C)CCC1", 62.33]
]}

* * *

This listing pairs compounds with measured PLATELET COUNT.
- Species: Rattus norvegicus
- ASSAY DETAILS: DrugMatrix - Regimen: Daily Repeat
- Format: toxicity, organism-based, Sprague-Dawley
- Set-up: regimen Daily Repeat, gender Male, age 6-8 weeks
- PROTOCOL CONDITIONS: in vivo, po, 0 mg/kg, 120 h, tissue Blood, route oral GAVAGE, dose level Control, time 5 day, vehicle 100 % WATER
VALUE KIND: PLATELET COUNT (x10E3/uL)

{"columns": ["COMPOUND", "OBSERVED"],
 "data": [
  ["COc1ccc(C(CN(C)C)C2(O)CCCCC2)cc1 (centres undefined) [VENLAFAXINE]", 1204],
  ["CC(C)(S)[C@@H](N)C(=O)O [PENICILLAMINE]", 802],
  ["NCC1(CC(=O)O)CCCCC1 [GABAPENTIN]", 1256.33],
  ["CC1COc2c(N3CCN(C)CC3)c(F)cc3c(=O)c(C(=O)O)cn1c23 (centres undefined) [OFLOXACIN]", 1285.33],
  ["C[C@]12Cc3c[nH]nc3C[C@@H]1CC[C@@H]1[C@@H]2CC[C@@]2(C)[C@H]1CC[C@]2(C)O [STANOZOLOL]", 1144.83],
  ["COc1cccc(C2(O)CCCCC2CN(C)C)c1 (centres undefined) [TRAMADOL]", 1144.83],
  ["CN1CCN(C(=O)OC2c3nccnc3C(=O)N2c2ccc(Cl)cn2)CC1 (centres undefined) [ZOPICLONE]", 1186.67],
  ["Fc1ccc([C@@H]2CCNC[C@H]2COc2ccc3c(c2)OCO3)cc1 [PAROXETINE]", 1144.83],
  ["NC(=O)c1ncn([C@@H]2O[C@H](CO)[C@@H](O)[C@H]2O)n1 [RIBAVIRIN]", 1280.5],
  ["Nc1ccc(S(=O)(=O)Nc2ccnn2-c2ccccc2)cc1 [SULFAPHENAZOLE]", 1198],
  ["CN1CCC[C@H]1c1cccnc1 [NICOTINE]", 1285.33],
  ["NNC(=O)c1ccncc1 [ISONIAZID]", 1270.67],
  ["Clc1ccc(C(c2ccccc2Cl)C(Cl)Cl)cc1 (centres undefined) [MITOTANE]", 1223.5],
  ["CC(CCc1ccccc1)NCC(O)c1ccc(O)c(C(N)=O)c1 (centres undefined) [LABETALOL]", 1281.17],
  ["CNCCC=C1c2ccccc2CCc2ccccc21 [NORTRIPTYLINE]", 1044],
  ["Cn1cnc([N+](=O)[O-])c1Sc1ncnc2nc[nH]c12 [AZATHIOPRINE]", 1057.33],
  ["Cc1cc(NS(=O)(=O)c2ccc(N)cc2)no1 [SULFAMETHOXAZOLE]", 1204],
  ["O=C1NC(=O)C(c2ccccc2)(c2ccccc2)N1 [PHENYTOIN]", 1044],
  ["CC1(C)S[C@@H]2[C@H](NC(=O)[C@H](N)c3ccc(O)cc3)C(=O)N2[C@H]1C(=O)O [AMOXICILLIN]", 1117]
]}
